Source of measurements: ChEMBL document CHEMBL1201862

# Test system: OVCAR-8
# Protocol Description: NCI tumour cell line growth inhibition, 48 h
Active and inactive are the calls of the source. Cut-off read from the data, not from the text of the source: active = GI50 up to about 1.1 µM and inactive = higher.
GI50 for assorted compounds

Some solved cases for reference:
> print(dat)
                                   compound      observed.result
1  CCCCC1Cc2cc(O)ccc2-c2nc3cc(O)ccc3n21.CCCCC1Cc2cc(O)ccc2-c2nc3ccc(O)cc3n21 (stereo not given)   21.4 µM (inactive)
2           O=C1NCc2ccccc2S(=O)(=O)n2cccc21  > 100 µM (inactive)
3  CC1CC2=Nc3ccccc3NC(c3ccccc3)C2=C(O)O1 (stereo not given)  > 100 µM (inactive)
4  CCN(CC)CCCOc1cc2c(cc1OC)C(=O)N1CCC[C@H]1C=N2   40.8 µM (inactive)

Please look at the following compound next.
# GI50 of CN1CCCC(C(=O)OCC(=O)C2(O)CCC3C4CCC5=CC(=O)CCC5(C)C4C(O)CC32C)C1 (stereo not given) = 15 µM (inactive)
